Quick reference for inhibition at 10 µM among some compounds
Target: human B1R receptor (hB1R) (Homo sapiens, UniProt P46663)
Construct: host or cells: CHO K1 cells
Sequence (P46663 whole entry): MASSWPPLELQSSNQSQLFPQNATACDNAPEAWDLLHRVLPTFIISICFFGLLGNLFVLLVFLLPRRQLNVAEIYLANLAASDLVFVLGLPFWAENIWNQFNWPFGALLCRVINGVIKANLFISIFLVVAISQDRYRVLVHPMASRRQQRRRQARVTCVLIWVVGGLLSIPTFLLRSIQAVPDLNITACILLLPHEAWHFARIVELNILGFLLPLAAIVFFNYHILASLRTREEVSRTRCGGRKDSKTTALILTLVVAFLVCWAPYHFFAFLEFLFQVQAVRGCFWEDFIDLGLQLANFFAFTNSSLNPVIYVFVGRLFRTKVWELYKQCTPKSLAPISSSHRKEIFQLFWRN
Test: FLIPR Ca2+ assay (Fluo-4) on CHO K1 cells stably transfected with the human B1R gene
Assay type: cell-based
Conditions: CHO-K1; test substance 10 μM; agonist Lys-Des-Arg9-bradykinin 0.5 nM; % inhibition compared to the maximum achievable inhibition
Numeric only. Scale: %

* COc1cc(C)c(S(=O)(=O)N2CCCCC2CCCC(=O)N2CCn3c(Cc4ccncc4)ccc3C2)c(C)c1 (centres unmarked) | 95

get_value(item= COc1cc(C)c(S(=O)(=O)N2CCCCC2CCCC(=O)N2CCn3cc(CCc4ccncc4)nc3C2)c(C)c1 (centres unmarked) , readout=inhibition at 10 µM) returns 98

get_value(item= COc1cc(C)c(S(=O)(=O)N2CCCCC2CCC(=O)N2CCn3cc(CCc4ccncc4)nc3C2)c(C)c1 (centres unmarked) , readout=inhibition at 10 µM) returns 82

get_value(item= COc1ccc(C2c3cccn3CCN2C(=O)COCC2CCCCN2S(=O)(=O)c2c(C)cc(C)cc2C)cc1 (centres unmarked) , readout=inhibition at 10 µM) returns 90

get_value(item= CCC1c2cccn2CCN1C(=O)COC[C@@H]1CCCCN1S(=O)(=O)c1c(C)cc(OC)cc1C (some centres unmarked) , readout=inhibition at 10 µM) returns 99

get_value(item= O=C(CC1CCCCN1S(=O)(=O)c1cccc(C(F)(F)F)c1)N1CCn2c(Cc3cccnc3)ccc2C1 (centres unmarked) , readout=inhibition at 10 µM) returns 80

get_value(item= Cc1cc(C)c(S(=O)(=O)N2CCCCC2COCC(=O)N2CCn3c(CN(C)C)ccc3C2Cc2ccccc2)c(C)c1 (centres unmarked) , readout=inhibition at 10 µM) returns 100

get_value(item= Cc1cc(C)c(S(=O)(=O)N2CCCCC2COCC(=O)N2CCn3cccc3C2C(C)(C)C)c(C)c1 (centres unmarked) , readout=inhibition at 10 µM) returns 98
